The reported numbers originate from the supplement of paper PMC10567573.

B1: HDAC6 (parent)
chain: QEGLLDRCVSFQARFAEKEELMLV

Variants of: B1
Procedure Text: protein stability index of a GFP-peptide fusion (GPS, HEK-293T) (PSI 1-6); higher = more stable;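 note: lentivirally expressed fusions sorted by FACS into six bins by GFP to DsRed ratio, PSI derived from sequencing read proportions per bin multiplied by bin number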
Condition Info: c terminus: a fixed tail appended
Cut-off 2 on protein stability index, inclusive. At or above means 1 (yes); below means 0 (no).

   sequence_change  group_label
0             R14Q       0 (no)
1              R7H       0 (no)
2             K18Y       0 (no)

Consider the record given below.
-- ask Please tell me: is the variant M22K at or over 2 in terms of protein stability index?
-- reply 1 (yes)
